Entry source: patent US20240376097A1

- procedureDetails: Metabolic Stability Study, liver microsome incubation (mouse)
- Assay type: in vitro ADME
- measurementContext: mouse liver microsomes 0.5 mg/mL, 1 μM compound, NADPH; NA^# = very stable, beyond the detection limits; read-out: T1/2 (min) mouse
Lab note - cut at 200 min for half-life at 1 μM: true if strictly below, false if not.

1) COc1cc(CN2CCN(C3CC4(C3)CN(c3ccc(C(=O)NS(=O)(=O)c5ccc(NC[C@H]6CC[C@](C)(O)CC6)c([N+](=O)[O-])c5)c(Oc5cnc6[nH]cc(F)c6c5)c3)C4)[C@H](c3ccccc3C(C)C)C2)ccc1OC1CC1 :: false
2) CC(C)c1ccccc1C1CN(Cc2cccc(F)c2)CCN1C1CC2(CCN(c3ccc(C(=O)NS(=O)(=O)c4ccc(NC[C@H]5CC[C@](C)(O)CC5)c([N+](=O)[O-])c4)c(Oc4cnc5[nH]ccc5c4)c3)CC2)C1 (some centres unmarked) :: true
3) COc1cc(CN2CCN(C3CC4(CCN(c5ccc(C(=O)NS(=O)(=O)c6ccc(NC[C@H]7CC[C@](C)(O)CC7)c([N+](=O)[O-])c6)c(Oc6cnc7[nH]cc(F)c7c6)c5)CC4)C3)[C@H](c3ccccc3C(C)C)C2)cc2c1OCC2(C)C :: true
4) COc1cc(CN2CCN(C3CC4(C3)CN(c3ccc(C(=O)NS(=O)(=O)c5ccc(NC[C@H]6CC[C@](C)(O)CC6)c([N+](=O)[O-])c5)c(Oc5cnc6[nH]cc(F)c6c5)c3)C4)[C@H](c3ccccc3C(C)C)C2)cc(F)c1OC :: true
5) COc1cc(CN2CCN(C3CC4(C3)CN(c3ccc(C(=O)NS(=O)(=O)c5ccc(NC[C@H]6CC[C@](C)(O)CC6)c([N+](=O)[O-])c5)c(Oc5cnc6[nH]cc(F)c6c5)c3)C4)[C@H](c3ccccc3C(C)C)C2)ccc1N1CCOCC1 :: false

----------
Here the recorded IC50 is given for each entry.
- system: recombinant human Bcl-2-G101V protein (Homo sapiens (Human), UniProt P10415, G101V)
- procedureDetails: Bcl-2-G101V TR-FRET Assay
- Type: binding
- measurementContext: Bcl-2 G101V mutant, TR-FRET; read-out: Biochemical assay (IC50, nM) Bcl-2 G101V
observationType: IC50 (nM)

1) COc1ccc(CN2CCN(C3CC4(C3)CN(c3ccc(C(=O)NS(=O)(=O)c5ccc(NC[C@H]6CC[C@](C)(O)CC6)c([N+](=O)[O-])c5)c(Oc5cnc6[nH]ccc6c5)c3)C4)C(c3ccccc3C(C)C)C2)cc1 (stereo partly shown) [Example 83] :: 0.25
2) CC(C)c1ccccc1[C@H]1CN(Cc2cccc3c2OCCO3)CCN1C1CC2(C1)CN(c1ccc(C(=O)NS(=O)(=O)c3ccc(NC[C@H]4CC[C@](C)(O)CC4)c([N+](=O)[O-])c3)c(Oc3cnc4[nH]ccc4c3)c1)C2 [Example 149b] :: 8.4
3) COc1ccc(CN2CCN(C3CC4(CCN(c5ccc(C(=O)NS(=O)(=O)c6ccc(NC[C@H]7CC[C@](C)(O)CC7)c([N+](=O)[O-])c6)c(Oc6cnc7[nH]ccc7c6)c5)CC4)C3)[C@H](c3ccccc3C(C)C)C2)cc1 [Example 19a] :: 0.18
4) COc1ccc(CN2CCN(C3CC4(CCN(c5ccc(C(=O)NS(=O)(=O)c6ccc(NCC7CCOCC7)c([N+](=O)[O-])c6)c(Oc6cnc7[nH]cc(F)c7c6)c5)CC4)C3)[C@H](c3ccccc3C(C)C)C2)cc1OC [Example 191] :: 0.2
